Target: VLA4 (Homo sapiens, UniProt P05556+P13612)
Construct: endogenous in cells; host or cells: Ramos cells
Sequence (P13612 34-1032): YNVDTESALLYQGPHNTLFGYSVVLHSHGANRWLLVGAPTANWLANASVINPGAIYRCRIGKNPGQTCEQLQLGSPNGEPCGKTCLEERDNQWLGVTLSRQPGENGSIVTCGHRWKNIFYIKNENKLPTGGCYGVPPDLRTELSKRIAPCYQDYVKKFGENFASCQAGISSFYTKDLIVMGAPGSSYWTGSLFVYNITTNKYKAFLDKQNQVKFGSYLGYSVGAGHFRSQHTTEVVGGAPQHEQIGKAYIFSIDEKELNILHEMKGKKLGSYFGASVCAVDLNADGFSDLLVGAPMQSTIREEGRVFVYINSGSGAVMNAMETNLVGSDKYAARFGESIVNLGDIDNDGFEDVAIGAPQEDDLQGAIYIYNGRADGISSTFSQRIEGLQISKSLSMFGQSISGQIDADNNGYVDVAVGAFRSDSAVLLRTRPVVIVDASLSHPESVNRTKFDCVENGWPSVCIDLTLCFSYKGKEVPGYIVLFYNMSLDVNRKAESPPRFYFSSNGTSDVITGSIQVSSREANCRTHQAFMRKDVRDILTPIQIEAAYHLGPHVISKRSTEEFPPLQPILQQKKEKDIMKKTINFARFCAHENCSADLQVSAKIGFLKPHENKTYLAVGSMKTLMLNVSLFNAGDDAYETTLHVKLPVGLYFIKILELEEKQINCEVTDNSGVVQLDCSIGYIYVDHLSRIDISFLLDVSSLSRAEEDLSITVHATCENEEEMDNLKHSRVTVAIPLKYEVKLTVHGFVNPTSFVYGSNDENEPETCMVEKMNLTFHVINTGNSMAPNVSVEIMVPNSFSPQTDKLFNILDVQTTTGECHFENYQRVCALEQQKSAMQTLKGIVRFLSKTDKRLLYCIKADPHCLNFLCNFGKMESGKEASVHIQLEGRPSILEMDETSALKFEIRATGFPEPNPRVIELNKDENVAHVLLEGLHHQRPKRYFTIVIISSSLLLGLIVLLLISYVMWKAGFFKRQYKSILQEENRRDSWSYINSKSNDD
Sequence (P05556 21-798): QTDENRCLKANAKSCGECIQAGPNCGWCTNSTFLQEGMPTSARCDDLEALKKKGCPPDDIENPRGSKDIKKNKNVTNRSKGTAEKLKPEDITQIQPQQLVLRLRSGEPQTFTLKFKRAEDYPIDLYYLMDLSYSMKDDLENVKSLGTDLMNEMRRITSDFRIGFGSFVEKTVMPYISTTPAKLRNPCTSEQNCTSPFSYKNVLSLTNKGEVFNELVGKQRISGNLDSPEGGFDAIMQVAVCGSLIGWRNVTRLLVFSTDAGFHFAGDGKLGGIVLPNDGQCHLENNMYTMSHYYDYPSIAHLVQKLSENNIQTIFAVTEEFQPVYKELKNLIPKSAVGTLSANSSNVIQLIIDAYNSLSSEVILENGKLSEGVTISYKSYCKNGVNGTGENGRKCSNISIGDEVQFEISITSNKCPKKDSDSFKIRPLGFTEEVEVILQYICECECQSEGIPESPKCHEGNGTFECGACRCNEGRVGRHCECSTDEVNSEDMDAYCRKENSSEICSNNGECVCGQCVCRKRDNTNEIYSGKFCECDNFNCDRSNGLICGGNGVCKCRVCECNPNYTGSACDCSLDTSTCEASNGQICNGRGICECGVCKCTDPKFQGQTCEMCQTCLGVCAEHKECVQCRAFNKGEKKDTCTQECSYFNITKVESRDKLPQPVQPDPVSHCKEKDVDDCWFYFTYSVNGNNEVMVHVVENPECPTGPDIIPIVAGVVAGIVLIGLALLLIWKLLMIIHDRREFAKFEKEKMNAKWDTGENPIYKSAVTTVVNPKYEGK
Test: Inhibition of VLA4-dependent adhesion of Ramos cells to BSA-CS1
Format: cell-based
Conditions: Ramos cells, BSA-CS1 coated wells, 2 mM MnCl2, 30 minutes at room temperature; read-out: IC50
Description: For example, the cell adhesion inhibitory activity of these compounds may be measured by determining the concentration of inhibitor required to block the binding of VLA-4-expressing cells to fibronectin- or CS1-coated plates. […] Inhibition of binding is measured by quantitating the fluorescence or radioactivity bound to the plate for each of the various concentrations of test compound, as well as for controls containing no test compound. […]
pIC50: −log10 of the molar value. Peptide text beside a SMILES is read from it.
Observable: pIC50

>  <Compound>
CC(C)C[C@H](NC(=O)CCc1ccc(O)cc1)C(=O)N[C@@H](CC(=O)O)C(=O)N[C@H](C(=O)N1CCC[C@H]1C(=O)O)C(C)C [Compound 38]

>  <pIC50>
< 5.00

$$$$

We now examine a further compound.
Query: # input compound: CC(C)C[C@H](NC(=O)C1(NC(=O)OC(C)(C)C)CCc2ccccc2C1)C(=O)N[C@@H](CC(=O)O)C(=O)N[C@H](C(=O)O)C(C)C (some centres unmarked) [Compound 63] (HELM PEPTIDE1{[CC(C)(C)OC(=O)[*:2]].[O=C(C1(N[*:1])CCc2ccccc2C1)[*:2]].L.D.V}$$$$V2.0) ; wanted: its pIC50
Response: < 5.00

----------
Biological target: VLA4 (Homo sapiens, UniProt P05556+P13612)
Construct: endogenous in cells; host or cells: Ramos cells
Assay: Inhibition of VLA4-dependent adhesion of Ramos cells to BSA-CS1
Format: cell-based
Conditions: Ramos cells, BSA-CS1 coated wells, 2 mM MnCl2, 30 minutes at room temperature; read-out: IC50
Peptide text beside a SMILES is read from it.
Observable: IC50

>  <Compound>
COC(=O)[C@@H](NC(=O)[C@H](CC(=O)O)NC(=O)[C@H](CC(C)C)NC(=O)C1Cc2ccccc2CN1)C(C)C (stereo partly drawn) [Compound 154] (HELM PEPTIDE1{[O=C(C1Cc2ccccc2CN1)[*:2]].L.D.V.[CO[*:1]]}$$$$V2.0)

>  <Target Entity>
VLA4 (Homo sapiens, UniProt P05556+P13612)

>  <Observable>
IC50

>  <Endpoint Value>
> 10 µM

$$$$

Query: Bench note: what IC50 did CC[C@H](C)[C@H](NC(=O)[C@H](CC(=O)O)NC(=O)[C@@H](NC(=O)Cc1ccc(NC(=O)Nc2ccccc2C)cc1)[C@@H](C)O)C(N)=O [Compound 255] show?
Response: < 0.05 µM

Query: IC50 for CC(C)C[C@H](NC(=O)Cc1ccc(NC(=O)Nc2ccccc2)cc1)C(=O)N[C@@H](CC(=O)O)C(=O)N1CCOCC1 [Compound 214] ?
Response: 0.05 to 10 µM

Query: Which IC50 is reported for this compound? CNC(=O)[C@@H](NC(=O)[C@H](CC(=O)O)NC(=O)[C@H](CC(C)C)NS(=O)(=O)c1ccccc1)C(C)C [Compound 189]
Response: > 10 µM

Query: Can you look up the measured IC50 of CC(C)CCNC(=O)[C@H](CC(=O)O)NC(=O)[C@H](CC(C)C)NC(=O)CCCCc1ccccc1 [Compound 102] for me?
Response: > 10 µM

Query: GET /values?readout=IC50&item= CC(C)C[C@H](NC(=O)c1ccc2ccccc2n1)C(=O)N[C@@H](CC(=O)OCc1ccccc1)C(=O)N[C@H](C(=O)O)C(C)C [Compound 159]
Response: > 10 µM
